Measured on: PKA-phosphorylated RyR2 (Homo sapiens, UniProt Q92736)
Construct: from tissue
Sequence (Q92736 whole entry): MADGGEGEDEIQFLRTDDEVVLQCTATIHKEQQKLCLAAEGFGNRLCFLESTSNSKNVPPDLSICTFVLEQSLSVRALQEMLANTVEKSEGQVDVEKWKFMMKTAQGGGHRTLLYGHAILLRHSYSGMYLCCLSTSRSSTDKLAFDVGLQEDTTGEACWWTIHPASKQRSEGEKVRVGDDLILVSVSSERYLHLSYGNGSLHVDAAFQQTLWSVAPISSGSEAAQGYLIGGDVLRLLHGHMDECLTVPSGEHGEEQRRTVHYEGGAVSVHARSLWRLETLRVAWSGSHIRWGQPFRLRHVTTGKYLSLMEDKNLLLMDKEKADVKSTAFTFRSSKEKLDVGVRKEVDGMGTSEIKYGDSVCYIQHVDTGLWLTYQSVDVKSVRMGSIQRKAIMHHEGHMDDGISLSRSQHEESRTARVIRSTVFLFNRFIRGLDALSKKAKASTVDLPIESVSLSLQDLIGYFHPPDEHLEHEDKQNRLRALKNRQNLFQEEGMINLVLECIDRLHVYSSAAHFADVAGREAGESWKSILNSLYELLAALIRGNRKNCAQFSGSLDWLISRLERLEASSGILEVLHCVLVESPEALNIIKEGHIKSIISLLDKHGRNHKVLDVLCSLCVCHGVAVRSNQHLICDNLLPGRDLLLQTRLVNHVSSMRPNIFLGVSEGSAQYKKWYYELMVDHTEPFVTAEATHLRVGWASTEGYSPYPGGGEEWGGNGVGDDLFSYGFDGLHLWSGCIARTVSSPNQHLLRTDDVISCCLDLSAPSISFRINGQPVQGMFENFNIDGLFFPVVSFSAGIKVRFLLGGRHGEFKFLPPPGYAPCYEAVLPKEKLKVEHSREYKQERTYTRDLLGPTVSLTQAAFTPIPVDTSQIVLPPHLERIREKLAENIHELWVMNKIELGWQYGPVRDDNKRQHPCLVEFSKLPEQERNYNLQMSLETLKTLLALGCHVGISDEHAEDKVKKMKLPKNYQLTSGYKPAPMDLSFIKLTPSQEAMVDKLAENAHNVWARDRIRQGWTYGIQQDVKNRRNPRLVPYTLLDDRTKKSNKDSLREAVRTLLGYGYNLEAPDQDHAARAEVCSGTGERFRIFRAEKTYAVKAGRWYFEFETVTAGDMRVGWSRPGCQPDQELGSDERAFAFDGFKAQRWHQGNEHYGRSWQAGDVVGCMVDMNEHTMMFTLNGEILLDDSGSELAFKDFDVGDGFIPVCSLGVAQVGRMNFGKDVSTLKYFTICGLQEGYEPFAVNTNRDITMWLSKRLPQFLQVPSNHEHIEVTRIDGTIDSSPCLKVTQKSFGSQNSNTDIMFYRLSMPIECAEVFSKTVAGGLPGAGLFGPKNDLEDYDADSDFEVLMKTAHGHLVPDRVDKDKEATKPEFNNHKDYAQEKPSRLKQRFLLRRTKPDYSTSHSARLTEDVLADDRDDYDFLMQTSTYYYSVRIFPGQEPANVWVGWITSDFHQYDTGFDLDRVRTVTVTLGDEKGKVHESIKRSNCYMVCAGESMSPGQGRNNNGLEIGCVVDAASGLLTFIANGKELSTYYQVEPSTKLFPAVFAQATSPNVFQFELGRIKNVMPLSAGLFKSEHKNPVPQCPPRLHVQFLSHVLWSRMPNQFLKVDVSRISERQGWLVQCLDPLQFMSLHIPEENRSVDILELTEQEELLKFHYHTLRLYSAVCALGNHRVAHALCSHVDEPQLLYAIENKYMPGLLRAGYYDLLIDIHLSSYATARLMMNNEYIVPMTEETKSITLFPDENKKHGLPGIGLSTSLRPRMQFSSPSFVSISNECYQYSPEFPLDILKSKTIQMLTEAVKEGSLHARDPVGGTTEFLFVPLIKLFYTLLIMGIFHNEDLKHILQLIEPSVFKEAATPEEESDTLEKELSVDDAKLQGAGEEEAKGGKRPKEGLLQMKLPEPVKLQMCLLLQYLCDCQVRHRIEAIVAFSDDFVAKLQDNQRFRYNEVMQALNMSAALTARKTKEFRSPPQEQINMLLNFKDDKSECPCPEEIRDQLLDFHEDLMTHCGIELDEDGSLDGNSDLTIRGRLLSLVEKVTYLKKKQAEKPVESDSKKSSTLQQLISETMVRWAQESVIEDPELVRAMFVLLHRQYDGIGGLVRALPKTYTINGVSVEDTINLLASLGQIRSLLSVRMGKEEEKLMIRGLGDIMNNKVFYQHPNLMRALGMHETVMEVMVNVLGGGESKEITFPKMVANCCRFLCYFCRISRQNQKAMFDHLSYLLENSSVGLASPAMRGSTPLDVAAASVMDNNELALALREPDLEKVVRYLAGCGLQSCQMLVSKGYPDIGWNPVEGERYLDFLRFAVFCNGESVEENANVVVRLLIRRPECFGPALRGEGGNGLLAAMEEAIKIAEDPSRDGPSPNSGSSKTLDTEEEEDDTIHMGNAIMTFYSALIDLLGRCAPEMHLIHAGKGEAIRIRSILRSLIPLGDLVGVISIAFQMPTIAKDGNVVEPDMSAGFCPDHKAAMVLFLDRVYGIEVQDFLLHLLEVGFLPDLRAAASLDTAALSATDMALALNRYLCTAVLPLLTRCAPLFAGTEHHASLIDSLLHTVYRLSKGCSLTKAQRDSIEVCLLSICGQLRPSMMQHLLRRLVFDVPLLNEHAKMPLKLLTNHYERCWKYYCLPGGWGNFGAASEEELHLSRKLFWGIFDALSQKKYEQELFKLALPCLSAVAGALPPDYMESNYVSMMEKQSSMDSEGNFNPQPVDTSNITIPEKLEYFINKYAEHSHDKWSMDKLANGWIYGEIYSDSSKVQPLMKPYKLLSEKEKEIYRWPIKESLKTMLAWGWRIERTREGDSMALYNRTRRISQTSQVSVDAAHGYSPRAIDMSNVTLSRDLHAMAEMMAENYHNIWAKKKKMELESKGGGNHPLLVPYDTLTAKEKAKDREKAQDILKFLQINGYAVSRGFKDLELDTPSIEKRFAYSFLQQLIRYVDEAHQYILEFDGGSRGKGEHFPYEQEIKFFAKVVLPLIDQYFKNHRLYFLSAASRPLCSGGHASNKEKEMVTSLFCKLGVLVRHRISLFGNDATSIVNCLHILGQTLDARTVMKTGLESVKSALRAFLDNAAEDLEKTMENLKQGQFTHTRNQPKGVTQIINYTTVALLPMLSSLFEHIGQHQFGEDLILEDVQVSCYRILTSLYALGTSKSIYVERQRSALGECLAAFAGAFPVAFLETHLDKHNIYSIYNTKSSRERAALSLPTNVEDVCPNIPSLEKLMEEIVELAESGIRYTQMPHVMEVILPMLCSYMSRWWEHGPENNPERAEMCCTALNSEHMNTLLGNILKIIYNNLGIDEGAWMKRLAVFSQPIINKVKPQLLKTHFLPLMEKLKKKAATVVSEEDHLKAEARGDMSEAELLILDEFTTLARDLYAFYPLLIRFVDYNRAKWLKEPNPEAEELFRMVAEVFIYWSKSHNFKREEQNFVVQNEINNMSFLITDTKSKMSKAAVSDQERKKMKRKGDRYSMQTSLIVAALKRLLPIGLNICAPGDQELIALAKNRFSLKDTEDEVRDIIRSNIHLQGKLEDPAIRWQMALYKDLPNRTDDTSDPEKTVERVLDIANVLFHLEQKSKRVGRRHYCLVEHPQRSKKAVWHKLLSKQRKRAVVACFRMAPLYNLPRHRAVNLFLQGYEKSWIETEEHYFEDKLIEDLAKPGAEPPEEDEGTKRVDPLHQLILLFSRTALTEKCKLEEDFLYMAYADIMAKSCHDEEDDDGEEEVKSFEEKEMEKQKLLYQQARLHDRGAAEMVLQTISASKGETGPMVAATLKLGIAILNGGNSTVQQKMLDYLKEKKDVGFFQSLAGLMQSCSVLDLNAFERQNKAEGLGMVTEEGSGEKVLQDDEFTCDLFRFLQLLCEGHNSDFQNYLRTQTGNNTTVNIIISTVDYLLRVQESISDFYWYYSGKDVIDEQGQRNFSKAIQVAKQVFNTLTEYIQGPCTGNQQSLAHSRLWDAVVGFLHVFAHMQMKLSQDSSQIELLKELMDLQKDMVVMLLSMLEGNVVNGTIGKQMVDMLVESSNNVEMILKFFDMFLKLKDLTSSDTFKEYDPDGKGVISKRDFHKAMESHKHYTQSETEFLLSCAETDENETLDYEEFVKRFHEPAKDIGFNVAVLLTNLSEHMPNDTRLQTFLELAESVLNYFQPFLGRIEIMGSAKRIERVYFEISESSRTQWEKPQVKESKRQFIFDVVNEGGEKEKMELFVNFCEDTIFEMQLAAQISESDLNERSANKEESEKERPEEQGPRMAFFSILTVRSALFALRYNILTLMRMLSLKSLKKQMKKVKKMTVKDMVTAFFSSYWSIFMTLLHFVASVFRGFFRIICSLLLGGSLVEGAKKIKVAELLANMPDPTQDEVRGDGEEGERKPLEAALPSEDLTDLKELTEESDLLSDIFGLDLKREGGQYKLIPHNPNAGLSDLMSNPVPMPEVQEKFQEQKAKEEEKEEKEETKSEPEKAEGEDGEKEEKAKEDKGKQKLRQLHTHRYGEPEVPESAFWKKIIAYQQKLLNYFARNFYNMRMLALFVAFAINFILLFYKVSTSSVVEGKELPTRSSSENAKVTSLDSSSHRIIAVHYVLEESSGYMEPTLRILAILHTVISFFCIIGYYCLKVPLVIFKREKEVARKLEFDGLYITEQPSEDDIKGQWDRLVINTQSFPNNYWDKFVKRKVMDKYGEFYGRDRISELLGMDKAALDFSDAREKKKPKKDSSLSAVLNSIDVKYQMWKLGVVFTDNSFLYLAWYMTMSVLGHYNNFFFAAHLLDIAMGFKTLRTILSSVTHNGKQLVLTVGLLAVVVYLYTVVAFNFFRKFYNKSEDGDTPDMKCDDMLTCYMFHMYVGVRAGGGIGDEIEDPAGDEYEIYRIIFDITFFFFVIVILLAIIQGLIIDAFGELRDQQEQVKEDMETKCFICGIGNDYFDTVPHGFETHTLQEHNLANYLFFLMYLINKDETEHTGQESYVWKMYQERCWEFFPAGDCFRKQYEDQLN
Sequence (P68106 whole entry partner): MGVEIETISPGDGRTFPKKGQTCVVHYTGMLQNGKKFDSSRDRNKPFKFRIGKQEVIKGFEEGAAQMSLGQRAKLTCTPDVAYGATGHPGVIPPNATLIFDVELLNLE
Protocol: FKBP12.6 rebinding assay: FKBP12.6 binding to PKA-phosphorylated RyR2 in cardiac SR
Test settings: compound 0.5-1000 nM; Michaelis-Menten curve fitting
Protocol: Samples are centrifuged at 95,000 g for 10 min and the pellets are washed three times in 0.2 ml imidazole buffer. The final pellets are pooled and resuspended in imidazole buffer (final concentration≈10 μg/μl). […] Under these conditions, it is expected that the measured current was carried by Ba^2+ primarily through L-type calcium channels which is referred to as ICa,L. Drugs are applied by a local solution changer and reach the cell membrane within 1 s. […]
I'd appreciate it if you could supply pEC50 values for the items below.
Give bare numbers, as −log10 of the molar value.

These recorded examples may help you get a feel for the data.
Compound	Observed
COc1ccc2c(c1)CN(C(=O)C(=O)NCCSSCCNC(=O)C(=O)N1CCSc3ccc(OC)cc3C1)CCS2	6.92
COc1ccc2c(c1)CN(C(=O)CCN1CCCCC1c1nnc(Cc3ccccc3)o1)CCS2 (centres unmarked)	6.95
COc1ccc2c(c1)CN(C(=O)CCN1CCC(Cc3ccc(N=[N+]=[N-])cc3)CC1)CCS2	7.35
CCN(CC)C(=O)N1CCSc2ccccc2C1	6.82
COc1ccc2c(c1)CN(C(=O)N1CCCCC1)CCS2	7.40
COc1ccc2c(c1)CN(C(=O)c1cccc(C(=O)N3CCSc4ccc(OC)cc4C3)n1)CCS2	6.45
COc1ccc2c(c1)CN(C(=O)C(=O)O)CCS2	7.82

From here, focus on the item given below.
Query: pEC50; subject: COC(=O)C(=O)N1CCSc2ccccc2C1
7.60
